Reference for the values: ChEMBL document CHEMBL1135364

As a worked illustration, we turn to pKi data collected for Substance-P receptor (Homo sapiens).
pKi: −log10 of the molar value.
Outcome measure: pKi

Below: 4 compounds and their reported pKi.
Compound: CO/N=C(\CN(C)C(=O)Nc1cc(C(F)(F)F)cc(C(F)(F)F)c1)C(CCN1CCC(O)(c2ccccc2)CC1)c1ccc(Cl)c(Cl)c1 (centres undefined)
Experimental target: Substance-P receptor (Homo sapiens)
Sequence (P25103 whole entry): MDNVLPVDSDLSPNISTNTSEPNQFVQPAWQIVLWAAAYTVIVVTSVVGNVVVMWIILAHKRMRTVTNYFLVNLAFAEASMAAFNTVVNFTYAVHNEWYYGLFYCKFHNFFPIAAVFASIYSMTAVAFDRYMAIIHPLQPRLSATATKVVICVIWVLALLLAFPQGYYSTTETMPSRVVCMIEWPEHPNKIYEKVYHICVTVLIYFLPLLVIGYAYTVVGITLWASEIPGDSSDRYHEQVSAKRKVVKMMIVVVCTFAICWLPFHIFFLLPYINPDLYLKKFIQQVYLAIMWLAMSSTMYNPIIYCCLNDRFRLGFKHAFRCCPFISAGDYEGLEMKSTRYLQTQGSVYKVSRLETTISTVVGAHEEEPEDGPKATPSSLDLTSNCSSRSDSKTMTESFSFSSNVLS
pKi: 8.30
//
Compound: CO/N=C(\CN(C)C(=O)c1cc(C(F)(F)F)cc(C(F)(F)F)c1)C(CCN1CCC(O)(c2ccccc2)CC1)c1ccc(Cl)c(Cl)c1 (centres undefined)
Experimental target: Substance-P receptor (Homo sapiens)
pKi: 8.40
//
Compound: CO/N=C(\CN(C)C(=O)Oc1cc(C(F)(F)F)cc(C(F)(F)F)c1)C(CCN1CCC(O)(c2ccccc2)CC1)c1ccc(Cl)c(Cl)c1 (centres undefined)
Experimental target: Substance-P receptor (Homo sapiens)
pKi: 8.22
//
Compound: CO/N=C(\CCCc1cc(C(F)(F)F)cc(C(F)(F)F)c1)C(CCN1CCC(O)(c2ccccc2)CC1)c1ccc(Cl)c(Cl)c1 (centres undefined)
Experimental target: Substance-P receptor (Homo sapiens)
pKi: 7.04

(A) CO/N=C(\CN(C)C(=O)c1cc(C)nc(N2CCCC2)c1)C(CCN1CCC(O)(c2ccccc2)CC1)c1ccc(Cl)c(Cl)c1 (centres undefined)
(B) CO/N=C(\COCCc1cc(C(F)(F)F)cc(C(F)(F)F)c1)C(CCN1CCC(O)(c2ccccc2)CC1)c1ccc(Cl)c(Cl)c1 (centres undefined)
(C) CO/N=C(\CN(C)S(=O)(=O)c1cc(C(F)(F)F)cc(C(F)(F)F)c1)C(CCN1CCC(O)(c2ccccc2)CC1)c1ccc(Cl)c(Cl)c1 (centres undefined)
Req: Please rank these compounds by pKi in descending order. Present the labels in the sequence the task asks for.
Resp: A, B, C
(A: 8.70, B: 7.41, C: 6.36)

* * *

- Experimental target: Substance-K receptor (Homo sapiens, UniProt P21452)
- Sequence (P21452 whole entry): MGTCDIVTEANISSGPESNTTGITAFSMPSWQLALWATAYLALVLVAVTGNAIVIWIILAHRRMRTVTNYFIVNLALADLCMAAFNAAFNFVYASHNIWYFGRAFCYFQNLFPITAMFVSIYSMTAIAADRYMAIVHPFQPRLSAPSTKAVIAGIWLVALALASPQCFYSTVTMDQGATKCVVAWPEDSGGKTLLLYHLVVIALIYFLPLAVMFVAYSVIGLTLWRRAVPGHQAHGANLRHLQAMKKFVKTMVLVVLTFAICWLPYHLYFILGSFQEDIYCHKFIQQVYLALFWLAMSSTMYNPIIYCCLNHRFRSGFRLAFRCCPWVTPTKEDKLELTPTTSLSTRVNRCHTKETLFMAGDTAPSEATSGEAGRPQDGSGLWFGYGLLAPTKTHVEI
- Method notes: Binding affinity test against Neurokinin 2 (NK2) receptor
Outcome measure: Ki (nM)

Below: 5 compounds and their reported Ki.
Compound: CO/N=C(\CN(C)C(=O)c1ccc(N(C)C)c2ccccc12)C(CCN1CCC(O)(c2ccccc2)CC1)c1ccc(Cl)c(Cl)c1 (stereo not given)
Unit label: nM
Ki: 7
--
Compound: CO/N=C(\COCc1noc(C(C)(C)C)n1)C(CCN1CCC(O)(c2ccccc2)CC1)c1ccc(Cl)c(Cl)c1 (stereo not given)
Unit label: nM
Ki: 1
--
Compound: CO/N=C(\CN(C)C(=O)c1cc(C)nc(N2CCCC2)c1)C(CCN1CCC(O)(c2ccccc2)CC1)c1ccc(Cl)c(Cl)c1 (stereo not given)
Unit label: nM
Ki: 3
--
Compound: CO/N=C(\COCCc1cc(C(F)(F)F)cc(C(F)(F)F)c1)C(CCN1CCC(O)(c2ccccc2)CC1)c1ccc(Cl)c(Cl)c1 (stereo not given)
Unit label: nM
Ki: 118
--
Compound: CO/N=C(\COCc1ccc2ccc(C(F)(F)F)nc2c1)C(CCN1CCC(O)(c2ccccc2)CC1)c1ccc(Cl)c(Cl)c1 (stereo not given)
Unit label: nM
Ki: 20

(P) CO/N=C(\CN(C)S(=O)(=O)c1cc(C(F)(F)F)cc(C(F)(F)F)c1)C(CCN1CCC(O)(c2ccccc2)CC1)c1ccc(Cl)c(Cl)c1 (stereo not given)
(Q) CO/N=C(\CN(C)C(=O)c1ccc(C)s1)C(CCN1CCC(O)(c2ccccc2)CC1)c1ccc(Cl)c(Cl)c1 (stereo not given)
(R) CO/N=C(\COC(=O)c1cc(C(F)(F)F)cc(C(F)(F)F)c1)C(CCN1CCC(O)(c2ccccc2)CC1)c1ccc(Cl)c(Cl)c1 (stereo not given)
(S) CO/N=C(\COCc1cc(C(C)(C)C)cc(C(C)(C)C)c1)C(CCN1CCC(O)(c2ccccc2)CC1)c1ccc(Cl)c(Cl)c1 (stereo not given)
(T) CO/N=C(\CN(C)C(=O)c1cc(C)nc(N(C)C)c1)C(CCN1CCC(O)(c2ccccc2)CC1)c1ccc(Cl)c(Cl)c1 (stereo not given)
Req: Please rank these compounds by Ki in descending order. Present the labels in the sequence the task asks for.
Resp: P, S, R, Q, T

(A) CO/N=C(\COCc1ccc2sc(C)nc2c1)C(CCN1CCC(O)(c2ccccc2)CC1)c1ccc(Cl)c(Cl)c1 (stereo not given)
(B) CO/N=C(\COC(=O)Nc1cc(C(F)(F)F)cc(C(F)(F)F)c1)C(CCN1CCC(O)(c2ccccc2)CC1)c1ccc(Cl)c(Cl)c1 (stereo not given)
(C) CO/N=C(\CN(C)C(=O)c1cc(C)nc(C)c1)C(CCN1CCC(O)(c2ccccc2)CC1)c1ccc(Cl)c(Cl)c1 (stereo not given)
Req: Please rank these compounds by Ki in descending order. Present the labels in the sequence the task asks for.
Resp: B, A, C

(I) CO/N=C(\COCc1cc(OC)c(OC)c(OC)c1)C(CCN1CCC(O)(c2ccccc2)CC1)c1ccc(Cl)c(Cl)c1 (stereo not given)
(II) CO/N=C(\COCc1cc(F)cc(F)c1)C(CCN1CCC(O)(c2ccccc2)CC1)c1ccc(Cl)c(Cl)c1 (stereo not given)
Req: Name the one with the greater Ki value, either I or II as given. Answer format: the label of the selected item.
Resp: II
